B1: CPEB3 Ribozyme (parent)
chain: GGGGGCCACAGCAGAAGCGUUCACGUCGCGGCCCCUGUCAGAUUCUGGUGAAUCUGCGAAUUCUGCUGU

variants of: B1; assay: self-cleavage, relative activity (ratio to wild type); higher = more cleavage; co-transcriptional
EXPERIMENTAL_READOUT: self-cleavage
Please reply with the number alone, leaving off any unit.

variant GGGGGCCACAGCAGAAGCGUUCACGUCGCGGCCCCUGUGCGAUUCUGGUGAAUCUGCGAAUUCUGCUGU [C39G A40C] , self-cleavage observed: 0.606

variant GGGGGCCACAGCAGAAGCGUUUACGUCGCGGCCCCUAUCAGAUUCUGGUGAAUCUGCGAAUUCUGCUGU [C22U G37A] , self-cleavage observed: 0.957

variant GGGGGCCACAGCAGAAGCGUUCACGUCGCGGCCCCUGUCAGAUUCUGGUGAACCUGCGAAGUCUGCUGU [U53C U61G] , self-cleavage observed: 0.58

variant GGGGCCCACAGCAGAAGCGUUCACGUCGCGGCCCCUGUCAGAUUCUGGUGAAUCUGCGAAUUGUGCUGU [G5C C63G] , self-cleavage observed: 0.109

variant GGGGGCCACAGCAGAAGCGUUCACGUCGCGGCCCCUUUCAGAUUCUCGUGAAUCUGCGAAUUCUGCUGU [G37U G47C] , self-cleavage observed: 0.352

variant GGGGGCCACAGCAGAAUCGUUCACGUCGAGGCCCCUGUCAGAUUCUGGUGAAUCUGCGAAUUCUGCUGU [G17U C29A] , self-cleavage observed: 0.921

variant GGGGGCCACAGCAGAAGCGUUCACGUCGCGGCCCCUGUCGGAUUCUGAUGAAUCUGCGAAUUCUGCUGU [A40G G48A] , self-cleavage observed: 1

variant GGGGACCACAGCAGAAGCGUUGACGUCGCGGCCCCUGUCAGAUUCUGGUGAAUCUGCGAAUUCUGCUGU [G5A C22G] , self-cleavage observed: 0.0902

Attention now shifts to the item below.
variant GGGCGCCAUAGCAGAAGCGUUCACGUCGCGGCCCCUGUCAGAUUCUGGUGAAUCUGCGAAUUCUGCUGU [G4C C9U] , self-cleavage observed: 0.937
